Measured On: Recombinant human Met (c-Met) (Homo sapiens)
Construct: purchased Invitrogen PV3143
Sequence (P08581 956-1390 limits assumed): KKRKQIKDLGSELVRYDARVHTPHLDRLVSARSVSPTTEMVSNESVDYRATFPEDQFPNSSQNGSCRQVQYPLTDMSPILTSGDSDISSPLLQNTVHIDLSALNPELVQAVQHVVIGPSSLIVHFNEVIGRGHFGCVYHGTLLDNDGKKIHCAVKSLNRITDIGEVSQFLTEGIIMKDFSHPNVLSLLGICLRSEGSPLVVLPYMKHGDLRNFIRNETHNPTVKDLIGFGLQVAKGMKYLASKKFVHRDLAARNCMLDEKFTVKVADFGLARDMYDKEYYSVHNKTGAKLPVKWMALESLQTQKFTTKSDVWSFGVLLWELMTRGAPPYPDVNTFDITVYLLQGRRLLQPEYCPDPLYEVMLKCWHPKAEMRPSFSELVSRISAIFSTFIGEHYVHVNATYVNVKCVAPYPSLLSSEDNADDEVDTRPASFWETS
Assay Text: Inhibition of c-Met kinase activity using Transcreener FP assay
Type: biochemical
Measurement Parameters: Poly E4Y substrate, 28° C. 45 min, read-out: IC50, inhibition of c-Met kinase activity
pIC50: −log10 of the molar value.
Value Kind: pIC50

# example entries with known answers
| Input Smiles | pIC50 |
| --- | --- |
| COCc1cnc2ccc([C@H](C)n3nnc4ncc(-c5cnn(C)c5)nc43)cn12 | 7.00 to 9.00 |
| CC(=O)OCCn1cc(-c2ccc3nnn(Cc4ccc5ncccc5c4)c3n2)cn1 | 6.00 to 7.00 |

**Query** Name the reported pIC50 value associated with the compound N#Cc1cc(Nc2cnc3nnn(Cc4ccc5ncccc5c4)c3n2)ccn1
**Result** 7.00 to 9.00

###

Measured On: Recombinant human Met (c-Met) (Homo sapiens)
Construct: purchased Invitrogen PV3143
Assay Text: Inhibition of c-Met kinase activity using Transcreener FP assay
Assay type: biochemical
Measurement Parameters: Poly E4Y substrate, 28° C. 45 min, read-out: IC50, inhibition of c-Met kinase activity
Value Kind: IC50

| Input Smiles | IC50 |
| --- | --- |
| OCCn1cc(Nc2cnc3nnn(Cc4ccc5ncsc5c4)c3n2)cn1 | 0.001 to 0.1 µM |

**Query** Name the reported IC50 value associated with the molecule c1cncc(Nc2ccc3nnn(Cc4ccc5ncccc5c4)c3n2)c1
**Result** 0.001 to 0.1 µM

**Query** Name the reported IC50 value associated with the molecule OCCn1cc(-c2cnc3nnn(Cc4cc5[nH]ncc5s4)c3n2)cn1
**Result** 0.001 to 0.1 µM
